These data points were gathered from patent US6730666B1.

# experimental.target: soluble FGFR-1 (FRAP) (Mus musculus)
# Sequence (P16092 22-376 limits assumed): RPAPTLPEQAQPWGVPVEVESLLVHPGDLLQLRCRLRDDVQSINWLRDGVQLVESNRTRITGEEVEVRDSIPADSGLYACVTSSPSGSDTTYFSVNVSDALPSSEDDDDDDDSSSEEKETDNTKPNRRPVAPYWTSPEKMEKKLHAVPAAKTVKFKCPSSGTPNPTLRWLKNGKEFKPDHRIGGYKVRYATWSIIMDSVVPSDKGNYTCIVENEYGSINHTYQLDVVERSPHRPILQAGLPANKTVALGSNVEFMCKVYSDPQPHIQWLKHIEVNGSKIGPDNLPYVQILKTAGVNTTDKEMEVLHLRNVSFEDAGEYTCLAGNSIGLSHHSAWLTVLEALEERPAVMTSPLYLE
# method.summary: Binding of 125I-bFGF to immobilized soluble FGFR-1 (FRAP), cell-free

structure | value.relation.sign | IC50 / nM
C[n+]1ccc(-c2c3nc(c(-c4c(F)c(F)c(F)c(F)c4F)c4ccc([nH]4)c(-c4cc[n+](C)cc4)c4nc(c(-c5c(F)c(F)c(F)c(F)c5F)c5ccc2[nH]5)C=C4)C=C3)cc1 | = | 20
C[n+]1ccc(-c2c3nc(c(-c4cc[n+](C)cc4)c4ccc([nH]4)c(-c4c(F)c(F)c(F)c(F)c4F)c4nc(c(-c5c(F)c(F)c(F)c(F)c5F)c5ccc2[nH]5)C=C4)C=C3)cc1 | = | 75
C[n+]1cccc(-c2c3nc(c(-c4ccc[n+](C)c4)c4ccc([nH]4)c(-c4ccc[n+](C)c4)c4nc(c(-c5ccc[n+](C)c5)c5ccc2[nH]5)C=C4)C=C3)c1 | > | 10000
C[N+](C)(C)c1ccc(-c2c3nc(c(-c4ccc([N+](C)(C)C)cc4)c4ccc([nH]4)c(-c4ccc([N+](C)(C)C)cc4)c4nc(c(-c5ccc([N+](C)(C)C)cc5)c5ccc2[nH]5)C=C4)C=C3)cc1 | = | 900
